- System: Canis familiaris
- measurement notes: AUC in beagle dog at 5 mg/kg, po
- Assay type: ADME, organism-based, Canis lupus familiaris
- assay setup: in vivo
attribute measured: AUC (µM·h)
The answer is to be given in µM·h; state only the numeric part.

Fill blank: measured AUC of the molecule COC(=O)N[C@H](C(=O)N1CCC[C@H]1c1ncc(-c2ccc3c(c2)OC(c2cccc(OC)c2)n2c-3cc3cc(-c4cnc([C@@H]5CCCN5C(=O)[C@@H](NC(=O)OC)C(C)C)[nH]4)ccc32)[nH]1)C(C)C (mixture of isomers) is ____.
5

---

- Test system: Hepatitis C virus
- measurement notes: Antiviral activity against HCV genotype 2a assessed as replicon RNA level measured after 3 days by real-time PCR method
- Assay type: functional, organism-based, Hepacivirus hominis
- assay setup: 72 h
attribute measured: pEC50
Scale: pEC50 equals -log10([C]), with [C] in mol/L.

Fill blank: measured pEC50 of the compound COC(=O)N[C@H](C(=O)N1CCC[C@H]1c1ncc(-c2ccc3c(c2)OC(c2cccc(-c4cccnc4)c2)n2c-3cc3cc(-c4cnc([C@@H]5CCCN5C(=O)[C@@H](NC(=O)OC)C(C)C)[nH]4)ccc32)[nH]1)C(C)C (mixture of isomers) is ____.
11.40

Fill blank: measured pEC50 of the compound COC(=O)N[C@H](C(=O)N1CCC[C@H]1c1ncc(-c2ccc3c(c2)OC(c2cccc(O)c2)n2c-3cc3cc(-c4cnc([C@@H]5CCCN5C(=O)[C@@H](NC(=O)OC)C(C)C)[nH]4)ccc32)[nH]1)C(C)C (mixture of isomers) is ____.
10.52

Fill blank: measured pEC50 of the compound COC(=O)N[C@H](C(=O)N1CCC[C@H]1c1ncc(-c2ccc3c(c2)OC(c2cccc(-c4noc(C)n4)c2)n2c-3cc3cc(-c4cnc([C@@H]5CCCN5C(=O)[C@@H](NC(=O)OC)C(C)C)[nH]4)ccc32)[nH]1)C(C)C (mixture of isomers) is ____.
11.70

Fill blank: measured pEC50 of the compound COC(=O)N[C@H](C(=O)N1CCC[C@H]1c1ncc(-c2ccc3c(c2)OC(c2ccc(Cl)cc2)n2c-3cc3cc(-c4cnc([C@@H]5CCCN5C(=O)[C@@H](NC(=O)OC)C(C)C)[nH]4)ccc32)[nH]1)C(C)C (some centres undefined) is ____.
11.30
